- protocol-details: gradient 5% acetonitrile 3 min, to 50% in 2 min, to 85% in 15 min, held 3 min, 100 µL/min
- condition-label: column: Zorbax Extend-C18 2.1 x 50 mm; eluents: water / acetonitrile, 0.1% formic acid
Criterion: RP-LC retention time meeting or surpassing 700 s. Met: 1. Not met: 0.

Hi team, for `O=S(=O)(NC1CCCCC1)c1ccc(-c2nnc(C3CC3)o2)o1` , is the recorded RP-LC retention time at or above 700 s?
1

// repeat for `CCCn1ccc2sc(C)c(C(=O)NCc3cccc(OCC)c3)c2c1=O` and report
1

Now consider CNC(=O)C1CCCN(c2nc3ncn(CC(=O)Nc4ccc(C)cc4C)c(=O)c3s2)C1 (centres undefined) and answer again.
0

Try this compound too: `O=C(Nc1ccc2cn[nH]c2c1)c1ccc2nc[nH]c2c1`
0

Also, COc1cc(Cl)c(C)cc1NC(=O)C1CCCN(c2nc3ccccc3nc2OC)C1 (centres undefined) please.
1

// repeat for CCc1ccc2oc(C(=O)NCC(c3ccccc3OC)N(C)C)cc(=O)c2c1 (centres undefined) and report
0
